# Tested target: T1, human CCR8 (human, UniProt P51685 1-355)
# T1 construct: Native CCR8 on human PBMC (CCR8+ CD3+ or CCR8+ CD4+ lymphocytes); also called chemokine (C-C motif) receptor 8
# T1 sequence (P51685 whole entry): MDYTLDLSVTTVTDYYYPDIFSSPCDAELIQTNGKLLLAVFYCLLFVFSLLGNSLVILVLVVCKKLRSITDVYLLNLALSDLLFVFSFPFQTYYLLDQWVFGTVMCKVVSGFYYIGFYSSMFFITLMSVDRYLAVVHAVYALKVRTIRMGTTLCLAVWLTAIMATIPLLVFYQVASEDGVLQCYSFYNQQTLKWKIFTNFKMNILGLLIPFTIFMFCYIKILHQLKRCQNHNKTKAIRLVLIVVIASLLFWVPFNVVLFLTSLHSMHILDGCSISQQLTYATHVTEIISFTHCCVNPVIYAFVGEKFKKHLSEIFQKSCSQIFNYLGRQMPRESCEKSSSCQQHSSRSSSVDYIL
# Protocol description: flow blocking, PBMC CCR8+CD3+; competitor PE-AB6
Recorded endpoint: % Blocking (%)
Kindly answer with a numeric value in %, unit omitted.

Look up % Blocking for this binder: AB13 (antibody, V domains shown, Hybridoma monoclonal; also called antibody 13; clone 13) VH: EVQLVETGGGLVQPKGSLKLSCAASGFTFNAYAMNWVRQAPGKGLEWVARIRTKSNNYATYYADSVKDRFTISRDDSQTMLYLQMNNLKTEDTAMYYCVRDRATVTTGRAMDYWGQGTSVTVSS VL: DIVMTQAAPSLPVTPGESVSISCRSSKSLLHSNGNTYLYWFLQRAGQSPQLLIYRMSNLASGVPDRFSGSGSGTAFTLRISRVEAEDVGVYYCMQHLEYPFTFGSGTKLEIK
-17.2
